target: adrenaline α1 receptors; assay: Receptor binding test: inhibition of tritium-labeled prazosin binding to brain homogenate; design: species or system Male Wistar rats; settings: text of disclosure; adrenaline-type nerve system receptor; read-out: IC50 value for α1-receptor
Reported property: IC50 (nM)
Numbers only here, please. The scale is nM.

stdin: I have this compound here, O[C@@H]1Cc2cccc(I)c2C[C@H]1N1CCN(c2ccccc2)CC1 , and I need its recorded IC50.
stdout: 402

###

target: UniProtKB Q62666; experiment: Inhibition experiment: inhibition of binding of radioactive-iodine-labeled DRC140 to purified synaptic vesicle fractions; set-up: Synaptic vesicles were extracted and separated from the brain of a rat; from tissue; host or cells: rat brain without cerebellum: P2, crude synaptic vesicles, purified synaptic vesicles; details: Table 8; purified synaptic vesicle fractions; inhibition of radioactive-iodine-labeled DRC140 binding; read-out: IC50 (nM) Average ± S.D
Sequence (Q62666 whole entry): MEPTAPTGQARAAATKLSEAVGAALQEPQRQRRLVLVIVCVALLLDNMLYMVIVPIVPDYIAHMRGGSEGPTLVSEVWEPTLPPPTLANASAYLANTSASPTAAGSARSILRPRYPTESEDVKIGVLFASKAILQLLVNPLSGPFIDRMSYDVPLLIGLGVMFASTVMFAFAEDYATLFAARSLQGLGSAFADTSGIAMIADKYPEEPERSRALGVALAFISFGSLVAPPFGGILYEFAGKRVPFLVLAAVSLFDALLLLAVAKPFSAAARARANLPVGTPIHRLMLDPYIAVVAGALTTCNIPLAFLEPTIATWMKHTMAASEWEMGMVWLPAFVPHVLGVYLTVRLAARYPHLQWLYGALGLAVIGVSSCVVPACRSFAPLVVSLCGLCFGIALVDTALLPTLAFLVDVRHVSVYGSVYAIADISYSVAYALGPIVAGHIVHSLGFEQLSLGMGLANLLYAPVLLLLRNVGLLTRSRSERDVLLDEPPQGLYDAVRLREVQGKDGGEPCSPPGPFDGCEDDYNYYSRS
Reported property: IC50
Write the numeric value and append its unit.

stdin: I have this compound here, O=C(c1ccc(F)cc1)C1CCN(CCn2c(=O)[nH]c3ccccc3c2=O)CC1 [Ketanserin, reference compound] , and I need its recorded IC50.
stdout: 1200 nM
